Reference source: ChEMBL document CHEMBL1201862

molecular target: Ras and Rab interactor 1/Tyrosine-protein kinase ABL1 (Homo sapiens, UniProt P00519+Q13671); format: functional;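 further: biochemical TR-FRET dose-response test measuring inhibition of binding between Rin1 and Abl proteins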
Sequence (P00519 whole entry): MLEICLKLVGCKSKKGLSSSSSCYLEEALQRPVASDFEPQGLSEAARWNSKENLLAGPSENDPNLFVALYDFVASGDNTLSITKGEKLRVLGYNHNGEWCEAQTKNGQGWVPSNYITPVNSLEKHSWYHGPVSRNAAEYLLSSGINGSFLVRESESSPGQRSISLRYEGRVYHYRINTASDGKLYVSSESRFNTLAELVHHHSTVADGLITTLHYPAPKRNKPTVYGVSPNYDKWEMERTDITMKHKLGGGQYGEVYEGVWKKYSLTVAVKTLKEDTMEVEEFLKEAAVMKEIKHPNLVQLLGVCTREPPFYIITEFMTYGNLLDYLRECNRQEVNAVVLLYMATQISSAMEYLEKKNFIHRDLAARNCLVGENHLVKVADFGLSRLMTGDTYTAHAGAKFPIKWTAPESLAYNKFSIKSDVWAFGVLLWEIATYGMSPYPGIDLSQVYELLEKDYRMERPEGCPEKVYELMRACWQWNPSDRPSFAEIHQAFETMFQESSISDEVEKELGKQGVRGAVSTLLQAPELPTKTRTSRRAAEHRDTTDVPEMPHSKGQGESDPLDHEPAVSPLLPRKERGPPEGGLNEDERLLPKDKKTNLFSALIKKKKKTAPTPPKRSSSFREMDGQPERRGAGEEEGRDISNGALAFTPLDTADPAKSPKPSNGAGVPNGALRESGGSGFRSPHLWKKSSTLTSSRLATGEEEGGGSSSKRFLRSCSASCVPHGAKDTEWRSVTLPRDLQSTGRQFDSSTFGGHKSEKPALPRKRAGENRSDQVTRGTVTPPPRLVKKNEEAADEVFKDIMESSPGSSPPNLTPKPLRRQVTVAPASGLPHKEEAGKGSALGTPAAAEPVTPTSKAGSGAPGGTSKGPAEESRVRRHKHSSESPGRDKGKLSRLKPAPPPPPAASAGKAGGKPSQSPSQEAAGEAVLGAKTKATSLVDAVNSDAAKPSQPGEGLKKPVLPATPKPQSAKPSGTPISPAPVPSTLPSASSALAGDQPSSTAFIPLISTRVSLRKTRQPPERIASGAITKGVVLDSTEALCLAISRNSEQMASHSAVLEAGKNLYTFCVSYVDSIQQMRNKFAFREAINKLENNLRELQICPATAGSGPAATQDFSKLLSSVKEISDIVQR
Sequence (Q13671 whole entry): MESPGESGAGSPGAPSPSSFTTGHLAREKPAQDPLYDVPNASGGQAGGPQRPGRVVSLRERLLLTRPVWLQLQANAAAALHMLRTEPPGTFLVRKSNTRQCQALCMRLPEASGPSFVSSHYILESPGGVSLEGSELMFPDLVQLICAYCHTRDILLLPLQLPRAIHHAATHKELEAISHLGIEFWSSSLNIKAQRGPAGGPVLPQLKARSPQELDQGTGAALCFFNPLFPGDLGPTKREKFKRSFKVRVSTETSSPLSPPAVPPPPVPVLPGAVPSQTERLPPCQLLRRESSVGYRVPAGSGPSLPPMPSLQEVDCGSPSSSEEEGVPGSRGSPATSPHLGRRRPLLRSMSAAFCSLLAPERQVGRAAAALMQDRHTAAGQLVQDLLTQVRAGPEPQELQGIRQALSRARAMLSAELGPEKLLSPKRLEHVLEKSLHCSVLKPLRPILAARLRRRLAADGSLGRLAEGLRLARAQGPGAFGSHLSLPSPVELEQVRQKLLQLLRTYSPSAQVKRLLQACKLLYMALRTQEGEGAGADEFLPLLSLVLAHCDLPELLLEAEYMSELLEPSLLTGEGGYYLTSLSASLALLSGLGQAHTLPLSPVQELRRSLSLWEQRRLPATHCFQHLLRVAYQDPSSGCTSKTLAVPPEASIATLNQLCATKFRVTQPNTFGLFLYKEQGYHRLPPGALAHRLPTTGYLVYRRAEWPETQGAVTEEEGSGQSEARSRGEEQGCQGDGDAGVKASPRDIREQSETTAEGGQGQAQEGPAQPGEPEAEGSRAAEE
Active and inactive are the calls of the source.
Labels: active, inactive

>>> discrete_label("Nc1cc[n+]([O-])cc1CCc1ccccc1")
"inactive"
>>> discrete_label("COC(=O)c1ccc(CSc2nnc(-c3c[nH]c4ccccc34)n2C)o1")
"inactive"
>>> discrete_label("CCCCSc1cc(O)nc(N)n1")
"inactive"
>>> discrete_label("O=C(Cc1ccc(NC(=O)C2CCN(C(=O)c3ccccc3)CC2)cc1)Nc1ccc(C(=O)N2CCOCC2)cc1")
"active"
>>> discrete_label("Cc1ccc(C(=O)N2CC(C)CC(C)C2)cc1NC1=NC2CS(=O)(=O)CC2S1 (stereo unspecified)")
"inactive"
>>> discrete_label("CCOC(=O)c1c(C)n(C(=O)c2ccco2)c(=O)n1C(=O)c1ccco1")
"inactive"
